# credit: patent US10538487B2

target: NLRP3 inflammasome (Homo sapiens); assay: Inhibition of IL-1β release, NLRP3 inflammasome activation assay in HMDM; type: cell-based; details: inhibition of IL-1β release, class symbols, read-out: Avg. IL-1β IC50 HMDM
Sequence (Q96P20 whole entry): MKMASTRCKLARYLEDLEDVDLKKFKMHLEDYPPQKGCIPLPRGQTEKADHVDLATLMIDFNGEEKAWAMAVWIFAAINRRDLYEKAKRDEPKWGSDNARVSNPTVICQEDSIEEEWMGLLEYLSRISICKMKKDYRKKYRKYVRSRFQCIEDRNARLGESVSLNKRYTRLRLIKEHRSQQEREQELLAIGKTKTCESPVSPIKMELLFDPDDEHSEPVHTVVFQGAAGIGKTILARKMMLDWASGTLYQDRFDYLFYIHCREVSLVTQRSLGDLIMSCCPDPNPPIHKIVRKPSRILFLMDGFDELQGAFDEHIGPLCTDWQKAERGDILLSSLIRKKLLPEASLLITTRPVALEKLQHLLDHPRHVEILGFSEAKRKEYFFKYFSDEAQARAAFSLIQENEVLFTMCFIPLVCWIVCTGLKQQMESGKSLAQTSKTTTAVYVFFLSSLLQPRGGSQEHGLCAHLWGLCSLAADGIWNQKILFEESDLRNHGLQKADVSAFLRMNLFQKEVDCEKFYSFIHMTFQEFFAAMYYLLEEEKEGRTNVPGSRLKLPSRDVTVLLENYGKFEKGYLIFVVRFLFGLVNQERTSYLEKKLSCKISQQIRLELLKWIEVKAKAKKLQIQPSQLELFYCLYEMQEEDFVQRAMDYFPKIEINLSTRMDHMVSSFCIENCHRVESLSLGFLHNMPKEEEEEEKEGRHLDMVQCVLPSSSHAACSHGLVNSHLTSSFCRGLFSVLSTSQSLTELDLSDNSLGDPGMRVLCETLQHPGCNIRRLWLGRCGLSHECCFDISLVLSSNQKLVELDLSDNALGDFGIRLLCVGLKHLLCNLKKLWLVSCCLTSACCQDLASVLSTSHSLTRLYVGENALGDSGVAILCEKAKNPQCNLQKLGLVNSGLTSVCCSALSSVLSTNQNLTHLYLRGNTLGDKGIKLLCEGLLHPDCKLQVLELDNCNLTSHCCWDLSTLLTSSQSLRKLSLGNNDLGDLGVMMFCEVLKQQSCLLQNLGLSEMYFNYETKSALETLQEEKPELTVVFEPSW
pIC50: −log10 of the molar value.

- compound: "O=C(Nc1c2c(cc3c1OCC3)OCC2)NS(=O)(=O)c1cccc(C2(C(F)(F)F)N=N2)c1"
  pIC50: "> 5.00"
- compound: "O=C(Nc1c2c(cc3c1CCC3)CCC2)NS(=O)(=O)C1CCCC1"
  pIC50: "> 5.00"
- compound: "CC(C)(O)c1coc(S(=O)(=O)NC(=O)Nc2c3c(cc4c2CCC4O)CCC3)c1 (stereo not drawn)"
  pIC50: "> 5.00"
- compound: "O=C(Nc1c2c(cc3c1CCC3)CCC2)NS(=O)(=O)c1ccc(Cl)cc1"
  pIC50: "> 6.00"
- compound: "CC(C)(O)c1cc(S(=O)(=O)NC(=O)Nc2c3c(cc4c2CCC4)CCC3)nn1-c1ccccc1"
  pIC50: "> 7.00"
- compound: "Cc1cc(C2CC2)nc(NC(=O)NS(=O)(=O)c2cc(C(C)(C)O)co2)n1"
  pIC50: "> 6.00"
- compound: "CC(C)c1cc(Cl)cc(C(C)C)c1NC(=O)NS(=O)(=O)c1cc(C(C)(C)O)n(C)n1"
  pIC50: "> 7.00"
- compound: "O=C(Nc1cccc2cccnc12)NS(=O)(=O)c1cccc(C2(C(F)(F)F)N=N2)c1"
  pIC50: "> 5.00"
- compound: "CCc1ccc(S(=O)(=O)NC(=O)Nc2c3c(cc4c2CCC4)CCC3)o1"
  pIC50: "> 6.00"
